Biological target: OGA (Homo sapiens)
Construct: endogenous in cells; host or cells: HEK293 cells inducible for P301L mutant human Tau (2N4R)
Sequence (O60502 1-916): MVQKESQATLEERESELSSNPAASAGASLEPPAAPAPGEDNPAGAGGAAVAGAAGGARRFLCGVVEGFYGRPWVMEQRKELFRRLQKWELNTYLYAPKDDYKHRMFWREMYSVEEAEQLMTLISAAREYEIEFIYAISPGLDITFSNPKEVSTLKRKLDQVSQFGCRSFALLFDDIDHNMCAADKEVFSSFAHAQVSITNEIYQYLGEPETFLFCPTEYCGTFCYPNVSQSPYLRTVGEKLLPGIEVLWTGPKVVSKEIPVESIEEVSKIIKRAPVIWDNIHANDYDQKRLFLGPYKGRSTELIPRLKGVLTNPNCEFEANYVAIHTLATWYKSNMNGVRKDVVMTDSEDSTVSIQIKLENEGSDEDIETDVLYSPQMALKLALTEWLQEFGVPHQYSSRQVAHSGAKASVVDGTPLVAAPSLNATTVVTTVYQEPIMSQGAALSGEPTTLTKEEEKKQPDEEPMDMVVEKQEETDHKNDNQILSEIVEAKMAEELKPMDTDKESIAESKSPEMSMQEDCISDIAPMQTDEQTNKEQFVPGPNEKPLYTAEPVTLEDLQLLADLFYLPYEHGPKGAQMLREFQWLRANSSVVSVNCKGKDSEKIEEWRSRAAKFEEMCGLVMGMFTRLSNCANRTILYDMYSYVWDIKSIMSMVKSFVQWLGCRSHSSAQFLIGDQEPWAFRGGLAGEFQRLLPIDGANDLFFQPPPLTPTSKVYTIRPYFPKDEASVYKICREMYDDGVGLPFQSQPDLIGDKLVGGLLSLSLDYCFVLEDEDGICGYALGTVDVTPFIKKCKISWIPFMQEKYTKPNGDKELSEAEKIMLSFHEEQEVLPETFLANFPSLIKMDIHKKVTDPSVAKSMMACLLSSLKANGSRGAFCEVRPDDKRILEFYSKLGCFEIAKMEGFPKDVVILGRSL
Experiment: OGA cellular assay (ICC detection of O-GlcNAcylated proteins in HEK293 cells inducible for P301L mutant human Tau)
Type: cell-based
Conditions: HEK293, HEK293 cells inducible for P301L mutant human Tau, maximal effect; Thiamet G 200 uM as maximum
measuredQuantity: Emax (%)

Cc1cc(C[C@H]2CCCN([C@@H](C)c3ccc4c(n3)OCCO4)C2)cc(C)n1 (single isomer, unassigned) [Product 46]; 90
Cc1cc(C2CCCN(C(C)c3ccc4c(n3)OCCO4)C2)cc(C(F)(F)F)n1 (stereo not shown) [Product 8]; 86

(1) Cc1cc(OC[C@H]2CCCN([C@@H](C)c3nc4c(cc3F)OCCO4)C2)cc(C)n1 [Product 153]
(2) Cc1cc(OC[C@@H]2CCCN(C(C)c3cnc4c(c3)OCCN4)C2)cc(C)n1 (stereo partly shown) [Product 145]
Task: Between 1 and 2 , which one has the lower reported Emax value? Bench note: the answer is the label of the chosen record.
Output: 2
(2: 35%, 1: 94%)

###

biological target: OGA (Homo sapiens); construct: endogenous in cells; host or cells: HEK293 cells inducible for P301L mutant human Tau (2N4R); assay: OGA cellular assay (ICC detection of O-GlcNAcylated proteins in HEK293 cells inducible for P301L mutant human Tau); assay type: cell-based; details: HEK293, HEK293 cells inducible for P301L mutant human Tau, maximal effect; Thiamet G 200 uM as maximum
measuredQuantity: Emax (%)

Cc1cc(C2CCCN(C(C)c3ccc4c(n3)OCCO4)C2)c(F)c(C)n1 (centres unmarked); 65
Cc1cc(NCC2CCCN(C(C)c3ccc4c(c3)OCC4)C2)cc(C)n1 (centres unmarked); 82
CC(c1ccc2c(n1)OCCO2)N1CCC[C@H](NCc2ccc(F)cc2)C1 (some centres unmarked); 66
Cc1cc(OC2CCCN(C(C)c3cnc4c(c3)OCCN4)C2)cc(C)n1 (centres unmarked); 60
Cc1cc([C@H]2CCCN([C@H](C)c3ccc4c(n3)OCCO4)C2)cc(C)n1 (single isomer, unassigned); 89

(A) Cc1cc(CN[C@H]2CCCN(C(C)c3ccc4c(n3)OCCO4)C2)cc(C)n1 (some centres unmarked)
(B) Cc1cc(CC2(F)CCCN([C@@H](C)c3ccc4c(n3)OCCO4)C2)cc(C)n1 (single isomer, unassigned)
Task: Which has the higher Emax, A or B ? Bench note: the answer is the label of the chosen record.
Output: A
(A: 71%, B: -8%)
